These data points were gathered from PubChem BioAssay (NCI).

- Tested on: SK-OV-3 ovarian
- ASSAY TEXT: NCI-60 one-dose screen, 48 h (100 = growth as untreated, 0 = no growth, -100 = all killed)
- TEST PARAMETERS: 10 µM
This is part of a sample that, as a whole, favours compounds with a hit. Of some 83,000 tested, about 20% had one in any assay.
Assign classes using reported growth values and the ranges bucket A (below 50%), bucket B (50% to below 90%), bucket C (90% or more), please.

1. Oc1ccc(Cn2cc3c(c2-c2ccccc2)CCc2cnoc2-3)cc1 : bucket C
2. COc1cc(CSc2nc3ccc(Cl)cc3c(=O)n2Cc2ccccc2)cc(OC)c1OC : bucket A
3. COc1cccc(C(=O)N(c2ccc(F)c(F)c2)C(C(=O)NC(C)(C)C)c2cc3c(C)cc(C)cc3nc2Cl)c1 (stereo not given) : bucket B
4. Cn1c(=O)c2[nH]c(C(O)c3ccc(Cl)cc3)nc2n(C)c1=O (stereo not given) : bucket C
5. Cc1cc(C(C)(C)CC(C)(C)C)ccc1OCCOCC[N+](C)(C)Cc1ccccc1 : bucket A
6. COc1cc(-c2cc(-c3ccc(C)cc3)nc3nc(N)[nH]c(=O)c23)ccc1Oc1ccnc2cc(Cl)ccc12 : bucket C
7. CNC(=S)Sc1ccc([N+](=O)[O-])cc1[N+](=O)[O-] : bucket B
8. CC1(C)Cc2c(cn(Cc3ccccc3)c2-c2ccccc2)-c2oncc21 : bucket C
9. N=C(N)c1ccc(-c2ccc(-c3ccccc3)s2)cc1F : bucket A
10. COc1cc(C2CC(=O)Nc3c2c(C)nn3-c2nc3ccccc3[nH]2)cc(OC)c1O (stereo not given) : bucket A
11. CC(C)C[C@H](NC(=O)Cn1ccc(Nc2ccccc2)cc1=O)B(O)O : bucket B
12. COc1ccc(-c2ccc(-c3ccc(C(=N)N)c(F)c3)s2)cc1 : bucket A
13. O=C1CC(c2cccc(-c3cccnc3)c2)=Nc2ccc(Br)cc2N1 : bucket A
14. C[N+]1=C(/C=C/c2ccc(I)cc2)C(C)(C)c2ccccc21 : bucket C
15. Oc1ccccc1-c1nnc(Cn2c(Cc3cccc4ccccc34)nc3ccccc32)o1 : bucket C
16. CCOC(=O)c1ccc(N(C=O)CCC(=O)CCl)cc1 : bucket A
17. COc1ccc(/C=C(\c2cc(OC)c(OC)c(OC)c2)c2nnc(-c3cccs3)o2)cc1 : bucket B
